# tested.system: Kappa-type opioid receptor (Cavia porcellus)
# Sequence (P41144 whole entry): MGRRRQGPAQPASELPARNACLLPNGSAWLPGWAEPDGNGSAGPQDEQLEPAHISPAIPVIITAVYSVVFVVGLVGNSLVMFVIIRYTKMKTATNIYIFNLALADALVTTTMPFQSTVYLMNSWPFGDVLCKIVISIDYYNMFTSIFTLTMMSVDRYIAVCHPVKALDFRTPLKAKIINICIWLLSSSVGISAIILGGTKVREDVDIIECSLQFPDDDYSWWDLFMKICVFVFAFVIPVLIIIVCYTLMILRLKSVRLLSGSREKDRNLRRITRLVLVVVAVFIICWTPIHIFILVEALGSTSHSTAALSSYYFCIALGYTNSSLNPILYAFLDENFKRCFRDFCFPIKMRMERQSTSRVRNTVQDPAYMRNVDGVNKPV
readout.label: Ki (nM)

{"compound": "Oc1ccc2c3c1O[C@H]1c4[nH]c5c(c4C[C@@]4(O)[C@@H](C2)N(CC2CC2)CC[C@]314)C[C@@]1(O)[C@H]2Cc3ccc(O)c4c3[C@@]1(CCN2CC1CC1)[C@H]5O4", "readout.label": "Ki", "test.value": 0.28}
{"compound": "CCCCC(=N)NCc1ccc2[nH]c3c(c2c1)C[C@@]1(O)[C@H]2Cc4ccc(O)c5c4[C@@]1(CCN2CC1CC1)C3O5 (some centres not stated)", "readout.label": "Ki", "test.value": 0.061}

---

Each entry below carries its recorded IC50 ratio.
# tested.system: UniProt:P97266
# Sequence (P97266 whole entry): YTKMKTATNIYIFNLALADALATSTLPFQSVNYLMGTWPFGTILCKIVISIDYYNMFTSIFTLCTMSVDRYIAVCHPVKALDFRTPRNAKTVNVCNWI
# test: Ratio of IC50 of morphine (M) in the presence (100 nM) to that of morphine (M) alone, against mu opioid receptor in Guinea pig ileum preparation.
# Type: tissue-based
readout.label: IC50 ratio

{"molecule": "CCCCC(=N)NCc1ccc2[nH]c3c(c2c1)C[C@@]1(O)[C@H]2Cc4ccc(O)c5c4[C@@]1(CCN2CC1CC1)C3O5 (some centres undefined)", "tested.system": "UniProt:P97266", "test.value": 15.7}
{"molecule": "CCCC(=N)NCc1ccc2[nH]c3c(c2c1)C[C@@]1(O)[C@H]2Cc4ccc(O)c5c4[C@@]1(CCN2CC1CC1)C3O5 (some centres undefined)", "tested.system": "UniProt:P97266", "test.value": 19.3}
{"molecule": "Oc1ccc2c3c1O[C@H]1c4[nH]c5ccccc5c4C[C@@]4(O)[C@@H](C2)N(CC2CC2)CC[C@]314", "tested.system": "UniProt:P97266", "test.value": 11.2}
{"molecule": "CCC(=N)NCc1ccc2[nH]c3c(c2c1)C[C@@]1(O)[C@H]2Cc4ccc(O)c5c4[C@@]1(CCN2CC1CC1)C3O5 (some centres undefined)", "tested.system": "UniProt:P97266", "test.value": 11.3}
